Listed here are molecules together with their documented pIC50.
- Test system: Human stromal cells
- test: Stromal cell proliferation in response to PDGF-BB
- Format: cell-based
- study.conditions: 50 ng/ml PDGF-BB
Give only the number. pIC50 is defined as minus log10 of concentration in molar units.

molecule	pIC50
Cn1cnc2c1c(=O)n(CCCCC(O)CNCCCCc1ccccc1)c(=O)n2C (centres unmarked) [compound no. 29]	4.40

Exercise: Supply measured pIC50 of CCCCCCCCCCCNCC(O)CCCCn1c(=O)c2c(ncn2C)n(C)c1=O (centres unmarked) [compound no. 30] in your reply.
Key: 6.05

Exercise: Supply measured pIC50 of CCCCCCCCNCC(O)CCCCn1c(=O)c2c(ncn2C)n(C)c1=O (centres unmarked) [compound no. 28] in your reply.
Key: 5.49

* * *

Listed here are molecules together with their documented IC50.
- Tested on: CMV promoter activity
- test: microbe, parasite or virus in culture
- Type: cell-based
- study.conditions: transformed (adenovirus) cells

Completed entries (count: 8):
molecule	IC50
Cn1cnc2c1c(=O)n(CCCCC(O)CNCC1CCCCC1)c(=O)n2C (stereo not shown)	> 100 µM
Cn1cnc2c1c(=O)n(CCCCC(O)CNCCCCCCO)c(=O)n2C (stereo not shown)	> 100 µM
CCCNCC(O)CCCCn1c(=O)ccn(C)c1=O (stereo not shown)	> 500 µM
CCCCCCCCNCC(O)CCCCn1c(=O)c2c(ncn2C)n(C)c1=O (stereo not shown)	50 µM
Cn1cnc2c1c(=O)n(CCCCC(O)CNCCCCc1ccccc1)c(=O)n2C (stereo not shown)	> 100 µM
CCCCCCN(CCCCCC)CC(O)CCCCn1c(=O)c2c(ncn2C)n(C)c1=O (stereo not shown)	100 µM
CCCNCC(O)CCCCn1c(=O)c(C)cn(C)c1=O (stereo not shown)	> 500 µM
CCCNCC(O)CCCCNC(=O)CCCC(=O)NCCC (stereo not shown)	> 500 µM

Exercise: Supply measured IC50 of Cn1cnc2c1c(=O)n(CCCCC(O)CNCc1ccccc1)c(=O)n2C (stereo not shown) in your reply.
Key: > 500 µM

Exercise: Supply measured IC50 of CCCCCCCCCCCNCC(O)CCCCn1c(=O)c2c(ncn2C)n(C)c1=O (stereo not shown) in your reply.
Key: 15 µM

* * *

- test: Cytotoxicity to stromal cells in the stromal cell/PDGF stimulation assay
- Type: cell-based
- study.conditions: human, read-out: concentrations with cytotoxic effects
endpoint.label: MCC

Exercise: Supply measured MCC of CCCCCCCCCCCNCC(O)CCCCn1c(=O)c2c(ncn2C)n(C)c1=O (stereo not shown) in your reply.
Key: > 900 nM

* * *

- System: Balb/3T3 cells
- test: PDGF-induced proliferation of Balb/3T3 cells
- Assay type: cell-based, murine
- study.conditions: Mus musculus, BALB/3T3; PDGF-BB, low serum 24 hours
- Method: Balb/3T3 cells respond vigorously to PDGF stimulation, and are useful in vitro models for further study of PDGF-induced proliferation. […] In another investigation similar to the Balb/3T3 proliferation assay of Example 32, IC50 and ID50 values for inventive compounds nos. 70, 45, 59 and 58 were determined. LD50 values were determined using a cytotoxicity assay, as in Example 32. […] Fluorescence was measured using a fluorescent plate reader. […]
pIC50: −log10 of the molar value.
endpoint.label: pIC50

Exercise: Supply measured pIC50 of CCCCCCCCNCC(O)CCCCCCCCCn1c(=O)c2c(ncn2C)n(C)c1=O (stereo not shown) in your reply.
Key: ~7.10

* * *

- System: murine splenocyte proliferation
- test: Splenocyte (B cell) proliferation stimulated by anti-mu/anti-IgM and IL-4
- Type: cell-based
- study.conditions: Mus musculus, anti-IgM antibodies (10 µg/ml) and murine IL-4 (12.5 ng/ml)
endpoint.label: IC50

Exercise: Supply measured IC50 of CCCCCCCCNCC(O)CCCCCCCCCn1c(=O)c2c(ncn2C)n(C)c1=O (stereo not shown) [compound no. 45] in your reply.
Key: 1.2 µM
